# Experiment summary: H9c2 cardiomyocyte survival under peroxide injury – uHTS, H9c2 cells, ATPLite luminescence, primary screen (AID 588492);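 further: 0% = DMSO wells with peroxide and 100% = DMSO wells without peroxide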
# Test conditions: H9c2 cardiomyocytes, 2 h, at 20 µM, stronger effect = higher value
In all, about 360,000 compounds went through this assay and about 2,300 (0.64%) were called active. The entries come from a sample that favours actives as a whole.
Task for the reader: assign each of the following molecules its reported protection from H2O2 cell death.
Express the result in % but write the number alone.

Suppose we examine the molecule Cc1nc(N2CCOCC2)c2c(C)c(C(=O)Nc3ccc(C(F)(F)F)cc3)sc2n1 ; what protection from H2O2 cell death value has been reported?
-3.8

Suppose we examine the molecule c1ccc(CCc2ccccn2)cc1 ; what protection from H2O2 cell death value has been reported?
-1.9

Suppose we examine the molecule Cc1cccn2c(=O)nc(SCC(=O)NCc3ccccc3Cl)nc12 ; what protection from H2O2 cell death value has been reported?
-5.6

Suppose we examine the molecule COC(=O)c1ccc(C(NC(=O)OCc2ccccc2)/C(F)=C/[C@@H](C)C(=O)O)cc1 (stereo partly specified) ; what protection from H2O2 cell death value has been reported?
1.8

Suppose we examine the molecule Cc1cccc(NC(=O)c2nc[nH]c2C(=O)NCC(=O)OCc2ccccc2)c1 ; what protection from H2O2 cell death value has been reported?
86.4

Suppose we examine the molecule CC(C)C1N=C2c3ccccc3N=C(SCC(=O)c3ccc(O)c(O)c3)N2C1=O (stereo unspecified) ; what protection from H2O2 cell death value has been reported?
96.8

Suppose we examine the molecule Cc1cc(C(=O)N/N=C/c2cc([N+](=O)[O-])cc(C)c2O)n[nH]1 ; what protection from H2O2 cell death value has been reported?
58.2

Suppose we examine the molecule CC1CCCCC1NC(=O)COc1ccc(C#N)cc1 (stereo unspecified) ; what protection from H2O2 cell death value has been reported?
7

Suppose we examine the molecule Cc1ccc(S(=O)(=O)NCC2CCC(C(=O)N3CCOCC3)CC2)cc1 (stereo unspecified) ; what protection from H2O2 cell death value has been reported?
3.4

Suppose we examine the molecule Cc1ccccc1Cn1c(C)c(C(=O)NCc2cccc(C(F)(F)F)c2)sc1=O ; what protection from H2O2 cell death value has been reported?
-2.6

Suppose we examine the molecule O=C(CCN1C(=O)C2C3C=CC(C3)C2C1=O)Nc1ccccc1F (stereo unspecified) ; what protection from H2O2 cell death value has been reported?
-1.8

Suppose we examine the molecule CC(OC(=O)CNC(=O)c1cccc(F)c1)C(=O)NC1CCCCC1C (stereo unspecified) ; what protection from H2O2 cell death value has been reported?
2

Suppose we examine the molecule COC(=O)c1cc(CNC(=O)CC(C)c2ccccc2)ccc1OC (stereo unspecified) ; what protection from H2O2 cell death value has been reported?
9.7

Suppose we examine the molecule CC(NC(=O)c1ccco1)C(=O)Nc1nc(-c2ccccn2)cs1 (stereo unspecified) ; what protection from H2O2 cell death value has been reported?
10.4

Suppose we examine the molecule Cc1ccc(C(=O)C(C)OC(=O)Cc2n[nH]c(=O)c3ccccc23)cc1C (stereo unspecified) ; what protection from H2O2 cell death value has been reported?
12.9

Suppose we examine the molecule COc1ccc(CN(C)C(=O)c2cc(-c3ccc(C)cc3C)nc3ccccc23)c(OC)c1OC ; what protection from H2O2 cell death value has been reported?
48.9
